Numbers sourced from paper PMC4355590.

- Measurement description: Stability of stock solutions and working standard solutions
- Type: physicochemical
- Protocol conditions: 8 h at room temperature; low level (Coumarin 50.0, 7-hydroxycoumarin 12.5, o-coumaric acid 25.0, Kaurenoic acid 10.0 ng/mL); n = 8, ± SD
Recorded metric: Mean recovery (ng/mL)
Lab book: enter the figure in ng/mL, no units written.

Let me know recorded Mean recovery for C=C1C[C@@]23CC[C@H]4[C@@](C)(CCC[C@@]4(C)C(=O)O)[C@@H]2CC[C@@H]1C3 , thanks.
10.2

Let me know recorded Mean recovery for O=c1ccc2ccccc2o1 , thanks.
54.5

Let me know recorded Mean recovery for O=c1ccc2ccc(O)cc2o1 [7-HCOU, 7-hydroxycoumarin] , thanks.
11.6

Let me know recorded Mean recovery for O=C(O)/C=C/c1ccccc1O , thanks.
22.6

---

- Measurement description: Stability in human plasma: short-term, freeze-thaw and long-term
- Format: in vitro ADME
- Protocol conditions: Short-term; high level
Recorded metric: RE (%)
Lab book: enter the figure in %, no units written.

Let me know recorded RE for O=C(O)/C=C/c1ccccc1O , thanks.
0.07

Let me know recorded RE for O=c1ccc2ccccc2o1 , thanks.
-3.56

Let me know recorded RE for C=C1C[C@@]23CC[C@H]4[C@@](C)(CCC[C@@]4(C)C(=O)O)[C@@H]2CC[C@@H]1C3 , thanks.
-0.22

Let me know recorded RE for O=c1ccc2ccc(O)cc2o1 [7-HCOU, 7-hydroxycoumarin] , thanks.
-1.59

---

Give measured Mean recovery for each item. Keep answers brief.
- Measurement description: Stability in human plasma: short-term, freeze-thaw and long-term
- Format: in vitro ADME
- Protocol conditions: Short-term: plasma at room temperature for 8 h; low level (50.0, 12.5, 25.0, 10.0 ng/mL); n = 8, ± SD
Answer with the value and then the unit.

Let me know recorded Mean recovery for C=C1C[C@@]23CC[C@H]4[C@@](C)(CCC[C@@]4(C)C(=O)O)[C@@H]2CC[C@@H]1C3 , thanks.
10.0 ± 0.3 ng/mL

Let me know recorded Mean recovery for O=c1ccc2ccccc2o1 , thanks.
52.4 ± 1.7 ng/mL

Let me know recorded Mean recovery for O=c1ccc2ccc(O)cc2o1 [7-HCOU, 7-hydroxycoumarin] , thanks.
11.7 ± 0.6 ng/mL

Let me know recorded Mean recovery for O=C(O)/C=C/c1ccccc1O , thanks.
25.2 ± 0.4 ng/mL

---

- Measurement description: Stability of stock solutions and working standard solutions
- Assay type: physicochemical
- Protocol conditions: 30 days at 4 °C; low level
Recorded metric: RE (%)
Lab book: enter the figure in %, no units written.

Let me know recorded RE for O=C(O)/C=C/c1ccccc1O , thanks.
-8.89

Let me know recorded RE for C=C1C[C@@]23CC[C@H]4[C@@](C)(CCC[C@@]4(C)C(=O)O)[C@@H]2CC[C@@H]1C3 , thanks.
-2.46

Let me know recorded RE for O=c1ccc2ccc(O)cc2o1 [7-HCOU, 7-hydroxycoumarin] , thanks.
-8.02

Let me know recorded RE for O=c1ccc2ccccc2o1 , thanks.
12.27

---

- Measurement description: Stability of stock solutions and working standard solutions
- Assay type: physicochemical
- Protocol conditions: 30 days at 4 °C (stock solutions); low level (50.0, 12.5, 25.0, 10.0 ng/mL); n = 8, ± SD
- Protocol: The stability of the stock solutions (1 mg/mL of each analyte and ISs) was evaluated after 30 days of storage in a refrigerator (4°C, amber bottles). […] The stability of the stock solutions was evaluated by comparing the mean recovery of the analytes and IS obtained from stored samples to the mean values obtained with freshly prepared samples, at the same concentration levels. […]
Recorded metric: Mean recovery

Let me know recorded Mean recovery for O=c1ccc2ccccc2o1 , thanks.
56.1 ± 2.3 ng/mL

Let me know recorded Mean recovery for O=C(O)/C=C/c1ccccc1O , thanks.
22.8 ± 1.2 ng/mL

Let me know recorded Mean recovery for O=c1ccc2ccc(O)cc2o1 [7-HCOU, 7-hydroxycoumarin] , thanks.
11.4 ± 0.9 ng/mL

Let me know recorded Mean recovery for C=C1C[C@@]23CC[C@H]4[C@@](C)(CCC[C@@]4(C)C(=O)O)[C@@H]2CC[C@@H]1C3 , thanks.
9.75 ± 0.6 ng/mL
